Measured values drawn from patent US20260317437 for this set.

# Target system: GCGR extracellular domain (human, UniProt P47871)
# Sequence (P47871 26-477): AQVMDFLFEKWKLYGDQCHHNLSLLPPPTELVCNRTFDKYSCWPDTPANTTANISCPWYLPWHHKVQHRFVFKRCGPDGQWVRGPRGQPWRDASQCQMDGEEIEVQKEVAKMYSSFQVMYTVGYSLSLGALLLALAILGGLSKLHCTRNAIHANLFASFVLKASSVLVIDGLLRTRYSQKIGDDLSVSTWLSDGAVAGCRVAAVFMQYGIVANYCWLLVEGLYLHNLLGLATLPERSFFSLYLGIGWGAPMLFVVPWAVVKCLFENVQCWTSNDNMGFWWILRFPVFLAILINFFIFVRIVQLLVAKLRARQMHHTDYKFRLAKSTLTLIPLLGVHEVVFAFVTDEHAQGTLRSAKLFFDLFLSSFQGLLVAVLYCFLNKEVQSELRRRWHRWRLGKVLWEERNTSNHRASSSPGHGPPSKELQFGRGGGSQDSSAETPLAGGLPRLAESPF
# Procedure summary: SPR
Measure name: Kd (nM)
Output spec: scalar in nM, unitless text.

-- ask Item under review: anti-GCGR IgG1 parent (antibody, V domains shown) VH: EVQLVESGGGLVQPGGSLRLSCAASGFNIYYNYIHWVRQAPGKGLEWVAEFSPYSGSTYYADSVKGRFTISADTSKNTAYLQMNSLRAEDTAVYYCARSAAIVDWYDYFKGFDYWGQGTLVTVSS VL: DIQMTQSPSSLSASVGDRVTITCRASQSVSSAVAWYQQKPGKAPKLLIYSASSLYSGVPSRFSGSRSGTDFTLTISSLQPEDFATYYCQQYGSYLYTFGQGTKVEIK . Reported Kd?
-- reply 2.53
